Parameter: % degradation of peptidomimetics in 24 h when incubated with DPP-IV enzyme. Scope: all listed entries.
molecular target: DPP IV (Homo sapiens); assay: Stability against DPP IV enzyme; type: in vitro ADME; conditions: 2 μM peptidomimetic, 37° C., 24 h
Sequence (P27487 whole entry, species assumed): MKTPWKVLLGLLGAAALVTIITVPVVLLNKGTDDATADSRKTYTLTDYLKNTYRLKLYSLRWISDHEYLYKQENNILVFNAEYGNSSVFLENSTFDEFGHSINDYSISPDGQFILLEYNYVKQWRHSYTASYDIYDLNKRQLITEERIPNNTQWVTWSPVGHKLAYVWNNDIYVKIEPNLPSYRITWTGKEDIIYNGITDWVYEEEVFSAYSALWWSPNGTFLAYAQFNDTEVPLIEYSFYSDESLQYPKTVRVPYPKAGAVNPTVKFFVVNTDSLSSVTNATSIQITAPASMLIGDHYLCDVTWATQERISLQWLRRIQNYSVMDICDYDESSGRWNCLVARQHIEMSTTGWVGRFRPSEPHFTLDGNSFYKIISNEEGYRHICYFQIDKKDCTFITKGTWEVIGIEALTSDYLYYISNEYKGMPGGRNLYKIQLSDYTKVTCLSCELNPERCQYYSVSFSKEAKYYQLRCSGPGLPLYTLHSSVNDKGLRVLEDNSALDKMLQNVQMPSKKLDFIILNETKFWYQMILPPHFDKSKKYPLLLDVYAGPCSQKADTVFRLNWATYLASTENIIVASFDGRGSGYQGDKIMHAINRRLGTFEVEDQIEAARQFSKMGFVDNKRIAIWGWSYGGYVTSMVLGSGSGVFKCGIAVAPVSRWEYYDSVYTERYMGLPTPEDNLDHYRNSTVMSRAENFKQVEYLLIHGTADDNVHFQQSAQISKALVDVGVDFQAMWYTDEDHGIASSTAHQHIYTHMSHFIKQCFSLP
Lab book: enter the figure in %, no units written.

# Molecule, Tested system, Test result
data = [
    ("CCc1cc(OC)ccc1-c1ccc(CC(NC(=O)[C@H](CC(=O)O)NC(=O)[C@H](CO)NC(=O)[C@@H](NC(=O)C(C)(Cc2ccccc2F)NC(=O)[C@@H](NC(=O)CNC(=O)C(CCC#N)NC(=O)C(C)(C)NC(=O)[C@H](Cc2c[nH]cn2)NC(=O)OC)[C@@H](C)O)[C@@H](C)O)C(=O)NC(CCCc2ccccc2F)C(N)=O)cc1 (single isomer, unassigned)", "DPP IV (Homo sapiens)", 76),
    ("CCc1cc(OC)ccc1-c1ccc(CC(NC(=O)[C@H](CC(=O)O)NC(=O)[C@H](CO)NC(=O)[C@@H](NC(=O)C(C)(Cc2ccccc2F)NC(=O)[C@@H](NC(=O)CNC(=O)C(CCC#N)NC(=O)C(C)(C)NC(=O)[C@H](Cc2c[nH]cn2)NC(C)=O)[C@@H](C)O)[C@@H](C)O)C(=O)NC(CCCc2ccccc2)C(N)=O)cc1 (single isomer, unassigned)", "DPP IV (Homo sapiens)", "00"),
]

Ask | Determine its reported % degradation of peptidomimetics in 24 h when incubated with DPP-IV enzyme: CCc1cc(OC)ccc1-c1ccc(CC(NC(=O)[C@H](CC(=O)O)NC(=O)[C@H](CO)NC(=O)[C@@H](NC(=O)C(C)(Cc2ccccc2F)NC(=O)[C@@H](NC(=O)CNC(=O)C(CCC#N)NC(=O)C(C)(C)NC(=O)[C@@H](N)Cc2c[nH]cn2)[C@H](C)O)[C@H](C)O)C(=S)NC(CCCc2ccccc2F)C(N)=O)cc1 (single isomer, unassigned)
Reply | 72
